Test system: SN12C renal
Assay: NCI tumour cell line growth inhibition, 48 h
Below, each of the molecules is paired with its reported GI50 value.

- Molecule: "COc1ccc2[nH]c(O)c(N=NC(=O)COc3ccc(NC(=O)Nc4ccccc4)cc3)c2c1"
  Reported result: "16.4 µM"
- Molecule: "C=C1CC[C@@H]2[C@]3(C)COC(c4cn[nH]c4-c4ccccc4)O[C@@H]3CC[C@@]2(C)[C@@H]1C/C=C1/C(=O)OCC1O (some centres undefined)"
  Reported result: "22 µM"

What value of measured GI50 is listed for CCCCOc1ccc(NC(=O)c2sc3nc(C)ccc3c2N)cc1 ?
4.09 µM

What value of measured GI50 is listed for N#CC1=C(c2cccs2)Nc2c(c(-c3ccccc3)nn2-c2ccccc2)C12C(=O)Nc1ccc(Br)cc12 (centres undefined) ?
13.7 µM
